B1: TPR 5TU (parent)
chain: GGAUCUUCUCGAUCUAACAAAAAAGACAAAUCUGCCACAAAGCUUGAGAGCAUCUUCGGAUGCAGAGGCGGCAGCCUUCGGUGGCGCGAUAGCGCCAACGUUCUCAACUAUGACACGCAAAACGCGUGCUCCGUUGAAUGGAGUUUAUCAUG

Variants of: B1
Measurement Description: polymerase ribozyme fitness, log enrichment relative to wild type (log ratio); higher = more active; in vitro selection for triplet polymerase activity
Fewer inactive variants are shown than the library holds.
Measurement Type: polymerase ribozyme fitness (log ratio)
Kindly provide the number alone.

G11C A47U C85U = -2.5
C96A = -0.52
U56G G81U A91G = -3.38

Identify the reported polymerase ribozyme fitness (log ratio) for the following entry. A17U G92A -2.84

Identify the reported polymerase ribozyme fitness (log ratio) for the following entry. G46U G59A A60C -2.54

Identify the reported polymerase ribozyme fitness (log ratio) for the following entry. U31G A60G G152U -3.16
